// reported Alkaline Phosphatase Increase - Index Value per item
- Tested on: Hepatotoxicity
- protocol summary: FDA HLAED, alkaline phosphatase increase
- conditions: human
Could you keep your reply to the number by itself?

>>> numeric_result("CC1=C(/C=C/C(C)=C/C=C/C(C)=C\\C(=O)O)C(C)(C)CCC1")
45.7
>>> numeric_result("Nc1nc(O)c2ncn(COC(CO)CO)c2n1")
4.2
>>> numeric_result("C[C@]12CC[C@H]3[C@@H](CCC4=CC(=O)CC[C@@]43C)[C@@H]1CC[C@@H]2OC(=O)Cc1ccccc1 [TESTOSTERONE PHENYLACETATE]")
0

Next molecule, please.
Provide only the value of recorded Alkaline Phosphatase Increase - Index Value for CCCC(=O)Nc1ccc(OCC(O)CNC(C)C)c(C(C)=O)c1 (centres undefined)
3.9

---

- Tested on: Hepatotoxicity
- protocol summary: FDA HLAED, liver enzyme composite activity
- conditions: human
// reported Composite Activity - Marginal per item
Could you keep your reply to the number by itself?

Below are worked cases with known answers.
>>> numeric_result("CO/N=C(\\C(=O)N[C@@H]1C(=O)N2C(C(=O)[O-])=C(C[N+]3(C)CCCC3)CS[C@H]12)c1csc(N)n1")
0
>>> numeric_result("CCOC(=O)[C@H](CCc1ccccc1)N[C@@H](C)C(=O)N1Cc2cc(OC)c(OC)cc2C[C@H]1C(=O)O")
0
>>> numeric_result("CN(C)c1ccc(O)c2c1C[C@H]1C[C@H]3[C@H](N(C)C)C(O)=C(C(N)=O)C(=O)[C@@]3(O)C(O)=C1C2=O")
2

Next compound, please.
Provide only the value of recorded Composite Activity - Marginal for `CC(C)(S)[C@@H](N)C(=O)O`
0

---

- Tested on: Hepatotoxicity
- protocol summary: FDA HLAED, serum glutamic pyruvic transaminase (SGPT) increase
- conditions: human
Classify as follows. Reported SGPT Increase - Index Value greater than or equal to 1: MET. Reported SGPT Increase - Index Value below: NOT MET.

Below are worked cases with known answers.
>>> category_label("C[C@@H](O)[C@H]1C(=O)N2C(C(=O)O)=C(S[C@@H]3CN[C@H](C(=O)N(C)C)C3)[C@H](C)[C@H]12")
"MET"
>>> category_label("CC(CCc1ccccc1)NCC(O)c1ccc(O)c(C(N)=O)c1 (stereo not given)")
"MET"
>>> category_label("COc1ccc(CCN2CCC(Nc3nc4ccccc4n3Cc3ccc(F)cc3)CC2)cc1")
"MET"

Note: attention shifts to another entry.
Kindly determine if SGPT Increase - Index Value recorded for `CNS(=O)(=O)Cc1ccc2[nH]cc(CCN(C)C)c2c1` is above or exactly 1.
NOT MET

---

- System: Hepatotoxicity
- protocol summary: FDA HLAED, serum glutamic pyruvic transaminase (SGPT) increase
- conditions: human
readout type: SGPT Increase - Activity Score

>>> result("Nc1nc(Cl)nc2c1ncn2[C@H]1C[C@H](O)[C@@H](CO)O1")
"Inactive"
>>> result("c1ccc([C@H]2CN3CCSC3=N2)cc1")
"Inactive"
>>> result("CO/N=C(\\C(=O)N[C@@H]1C(=O)N2C(C(=O)O)=C(COC(C)=O)CS[C@H]12)c1csc(N)n1")
"Inactive"
>>> result("CCc1cccc2c3c([nH]c12)C(CC)(CC(=O)O)OCC3 (centres undefined)")
"Inactive"
>>> result("Cc1cc(CC(=O)O)n(C)c1C(=O)c1ccc(Cl)cc1 [ZOMEPIRAC]")
"Inactive"
>>> result("CN(N=O)C(=O)N[C@@H](C=O)[C@@H](O)[C@H](O)[C@H](O)CO")
"Inactive"
>>> result("COc1cc(NCc2ccc3nc(N)nc(N)c3c2C)cc(OC)c1OC [TRIMETREXATE]")
"Inactive"
>>> result("Clc1ccc2nsnc2c1NC1=NCCN1")
"Active"

Next compound, please.
Provide only the value of recorded SGPT Increase - Activity Score for COc1ccc(C(=O)Nc2ccccc2CCC2CCCCN2C)cc1 (centres undefined) [ENCAINIDE]
Active
